Experiment: P-glycoprotein substrates identified in KB-8-5-11 adenocarcinoma cell line, qHTS therapeutic library screen (AID 1346987); further: nearly all actives have a fitted effect of over 65% in size
Details: KB-8-5-11 (P-gp overexpressing) viability, CellTiter-Glo, 72 h; series mostly up to 44.5 µM
Results filed as inconclusive are left out. Calls of active or inactive are those of the source. The call rests on the fitted dose curve; in most records, active means well fitted inhibition curve with a large enough effect; inconclusive means small, poorly fitted or top-dose-only effect; inactive means flat fitted curve, though single readings scatter.
Outcome codes: 1 for active, -1 for inactive

compound	answer label
C=C[C@H]1[C@H](O[C@@H]2O[C@H](CO)[C@@H](O)[C@H](O)[C@H]2O)OC=C(C(=O)OC)[C@H]1C[C@@H]1c2cc(O)c(O)cc2CCN1C(C)=O	-1
CC(=O)NC1C(OC(C)(C)C2CCC3(C)C=C(C4CCC5C4(C)CC(O)C4OC(C(C)(C)O)CCC45C)CCC3O2)OC(CO)C(O)C1O (stereo not drawn)	-1
N#C[C@@H]1CCCN1C(=O)CNC12CC3CC(CC(O)(C3)C1)C2	-1
CC(C)(O)/C=C/CC(C)(O)C1C(O)CC2(C)C3CCC4C(C)(C)C(=O)CCC4(C)C3CCC12C (stereo not drawn)	-1
COc1ccc(CC2NCCc3c2[nH]c2ccc(C)cc32)cc1OC (stereo not drawn)	-1
CCCCOC(=O)NC(=O)C1c2ccccc2Oc2ccccc21	-1
CS(=O)(=O)N1CCC(NC(=O)c2[nH]ncc2NC(=O)c2c(Cl)cccc2Cl)CC1	1
Cc1c(NC(=O)c2cc(C(N)=O)nc3cc(F)ccc23)c(C(F)(F)F)nn1Cc1ccc(C#N)cc1	-1
O=C(CCCCN1CCOCC1)Nc1ccc(-c2cccnc2)cc1	-1
OC[C@H]1O[C@@H](OC[C@H]2O[C@@H](OC/C=C/c3ccccc3)[C@H](O)[C@@H](O)[C@@H]2O)[C@@H](O)[C@@H]1O	-1
C/C1=C\CCC(C)CCO[C@@H]2O[C@H](CO[C@@H]3OC[C@H](O)[C@H](O)[C@H]3OC1=O)[C@@H](O)[C@H](O)[C@H]2O (stereo partly drawn)	-1
CC(O)c1cc(C(=O)N[C@@H](C)Cn2ccc(-c3ccc(C#N)c(Cl)c3)n2)n[nH]1 (stereo partly drawn)	-1
CS(=O)(=O)N(CC(=O)NCC1CC1)c1cc(C(F)(F)F)ccc1Cl	-1
COC(=O)C1=CO[C@@H](O[C@@H]2O[C@H](CO)[C@@H](O)[C@H](O)[C@H]2O)[C@@H]2C(CO)=CC[C@]12O	-1
C#CCN(Cc1cc2c(=O)[nH]c(C)nc2cc1Br)c1ccc(C(=O)NCc2cccnc2)cc1	1
Cc1cnc(NC(=O)Nc2cc(Br)c(C)cc2OCC2CNCCO2)cn1 (stereo not drawn)	1
C=C1C[C@@]23CCC4[C@@](C)(CCC[C@@]4(C)C(=O)OC)C2CC[C@@H]1C3 (stereo partly drawn)	-1
CC1CC(C(O)C(C)(C)O)OC2CC3(C)C4(C)CCC5C(C)(C)C(=O)CCC5(C)C4CCC3(O)C12O (stereo not drawn)	-1

---

Assay: Primary qHTS for inhibitors of nuclear receptor binding SET domain protein 2 (NSD2) in an RCH-ACV wild type WT cells (2C) (AID 1645877); further: nearly all actives have a fitted effect of over 70% in size
Settings: RCH-ACV (leukaemia line) NSD2 WT (2C) viability, CellTiter-Glo, 72 h; series mostly up to 44.9 µM
Inconclusive results are not listed. Calls of active or inactive are those of the source. The call rests on the fitted dose curve; in most records, active means well fitted inhibition curve with a large enough effect; inconclusive means small, poorly fitted or top-dose-only effect; inactive means no such curve, though single readings can be large or run the other way.
Classes used: TRUE for active, FALSE for inactive

molecule	answer label
C[C@H]1CC[C@@]2(OC1)O[C@H]1CC3C4CC[C@H]5C[C@@H](O)[C@H](O)C[C@]5(C)C4=CC(=O)[C@]3(C)[C@H]1[C@@H]2C (some centres not stated)	FALSE
CC[C@H]1OC(=O)[C@H](C)[C@@H](O[C@H]2C[C@@](C)(OC)[C@@H](O)[C@H](C)O2)[C@H](C)[C@@H](O[C@@H]2O[C@H](C)C[C@H](N(C)C)[C@H]2O)[C@](C)(O)C[C@@H](C)C(=O)[C@H](C)[C@H]2OC(=O)O[C@@]21C	FALSE
N#Cc1ccc(C(=O)N2CCC3(CC2)N=C(N)c2c(F)ccc(F)c2N3)cn1	FALSE
CC(C)S(=O)(=O)NC[C@H](C)c1ccc(NC(=O)c2cc(F)cc(F)c2)cc1	FALSE
COc1cc(O)c([C@@H](CC(=O)N2CC(C)CC(C)C2)c2ccc3c(c2)OCO3)c(OC)c1 (some centres not stated)	FALSE
OC[C@H]1O[C@@H](OC[C@H]2O[C@@H](OC/C=C/c3ccccc3)[C@H](O)[C@@H](O)[C@@H]2O)[C@@H](O)[C@@H]1O	FALSE
CC(Oc1ccc2[nH]nc(/C=C/c3cnn(CCO)c3)c2c1)c1c(Cl)cncc1Cl (configuration not stated)	TRUE

---

Tested on: HeLa
Assay: Primary qHTS to identify gynecologic anti-cancer compounds using libraries of approved drugs and bioactive compounds (AID 1345084); further: nearly all actives have a fitted effect of over 55% in size; further: potency means the concentration at half of the fitted maximal effect
Settings: Gynecologic cancer cell panel viability, ATPlite luminescence, 48 h; series mostly up to 57.5 µM
Results filed as inconclusive are left out. Activity calls are given as the source filed them. Calls follow the shape of the dose curve; as a rule, active = well fitted cell-killing curve with a large enough effect; inconclusive = small, poorly fitted or top-dose-only effect, or effect the other way; inactive = flat fitted curve, though single readings scatter.

compound	Potency
CC(C)=CCC/C(C)=C/CO[C@@H]1O[C@H](CO)[C@@H](OC(=O)/C=C/c2ccc(O)cc2)[C@H](O[C@@H]2O[C@@H](C)[C@H](O)[C@@H](O)[C@H]2O)[C@H]1O	inactive
COc1cc(OC)c(/C=C/S(=O)(=O)Cc2ccc(OC)c(NCC(=O)O)c2)c(OC)c1	251 nM (active)
COCCOc1cnc2ccn([C@H](C)c3nnc4c(F)cc(-c5cnn(C)c5)cn34)c(=O)c2c1	inactive
CS(=O)(=O)N1CCC(NC(=O)c2[nH]ncc2NC(=O)c2c(Cl)cccc2Cl)CC1	10000 nM (active)
COC1=CC(=O)CC(C)C12Oc1cc(OC)cc(O)c1C2=O (centres undefined)	inactive
CCCCC1CCN(CCCC(=O)c2ccccc2C)CC1	inactive
COc1ccc2[nH]c3c(-c4cccc5ccccc45)nccc3c2c1	891 nM (active)
CC/C=C\CCO[C@@H]1O[C@H](CO)[C@@H](O)[C@H](O)[C@H]1O	inactive
O=C(c1cccc(Cl)c1F)N1CCN(Cc2cccc(Nc3nccs3)n2)CC1	1000 nM (active)
CC(C)=CCCC1(C)C=Cc2c(c(C)cc3c2[nH]c2ccccc23)O1 (centres undefined)	inactive
CC(C)(C)C(=O)CN1C(=O)[C@H](NC(=O)Nc2cccc(C(=O)O)c2)CN(C2CCCCC2)c2ccccc21	inactive
O=C1NC2CCc3nc4ccccc4c(=O)n3C2=Nc2ccccc21 (centres undefined)	inactive
CC1CCC2(C=O)C(CO)=CCCC2C1(C)CC(=O)O (centres undefined)	inactive
O=C(O)c1cc2cccc([N+](=O)[O-])c2[nH]1	inactive
C=CC/C=C\C/C=C\CCCCCCCc1cccc(O)c1C(=O)O	inactive
Cc1ccc([N+](=O)[O-])cc1S(=O)(=O)N(C)/N=C/c1cnc2ccc(Br)cn12	316 nM (active)
COC(=O)C1(C)CCC2(C(=O)O)CCC3(C)C(=CCC4C5(C)CC(O)C(OC6OCC(O)C(O)C6O)C(C)(CO)C5CCC43C)C2C1 (centres undefined)	inactive
C[C@@H]1C[C@@H]2O[C@H]2/C=C\C=C\C(=O)Cc2c(Cl)c(O)cc(O)c2C(=O)O1	inactive
CC1CC(=O)C2=C(CCC3(O)C(O)c4c(O)cccc4C(=O)C23O)C1 (centres undefined)	inactive

---

As shown below, each of these compounds has a reported activity change, negative = cytotoxicity value.
Tested on: Tov-21-G
Assay: Primary qHTS to identify gynecologic anti-cancer compounds using libraries of approved drugs and bioactive compounds (AID 1345084); further: nearly all actives have a fitted effect of over 55% in size; on activity change, negative = cytotoxicity: on the % scale 0 is the no-effect control and ±100 the full control effect
Settings: Gynecologic cancer cell panel viability, ATPlite luminescence, 48 h; series mostly up to 57.5 µM
Results filed as inconclusive are left out. Activity calls are given as the source filed them. Calls come from the whole dose curve; as a rule, active = well fitted cell-killing curve with a large enough effect; inconclusive = small, poorly fitted or top-dose-only effect, or effect the other way; inactive = flat fitted curve, though single readings scatter.

compound	activity change, negative = cytotoxicity
CC(C)=CCC[C@](C)(O[C@@H]1O[C@H](CO[C@@H]2O[C@H](CO)[C@@H](O)[C@H](O)[C@H]2O)[C@@H](O)[C@H](O)[C@H]1O)C1CC[C@]2(C)[C@@H]1[C@H](O)CC1[C@@]3(C)CC[C@H](O[C@@H]4O[C@H](CO)[C@@H](O)[C@H](O)[C@H]4O[C@@H]4O[C@H](CO)[C@@H](O)[C@H](O)[C@H]4O)C(C)(C)[C@@H]3CC[C@]12C (some centres undefined)	1.55% [at 11.6 µM] (inactive)
C[C@@H]1CC[C@]2(C(=O)O[C@@H]3O[C@H](CO)[C@@H](O)[C@H](O)[C@H]3O)CC[C@]3(C)C(=CCC4[C@@]5(C)C[C@@H](O)[C@H](O)[C@@](C)(C(=O)O[C@H]6[C@H](O)C[C@@]7(C)C(CC[C@]8(C)C7CC=C7[C@H]9[C@](C(=O)O[C@@H]%10O[C@H](CO)[C@@H](O)[C@H](O)[C@H]%10O)(CC[C@@H](C)[C@@]9(C)O)CC[C@]78C)[C@@]6(CO)C(=O)O)C5CC[C@]43C)[C@@H]2[C@]1(C)O (some centres undefined)	0.548% [at 6.55 µM] (inactive)
CC12CCC(=O)C=C1C(O)CC1C2C(O)CC2(C)C1CC[C@]2(O)C(=O)CO (some centres undefined)	-3.93% [at 11.6 µM] (inactive)
CC(=O)N[C@H]1[C@H](O[C@H]2CC[C@@]3(C)C(CC[C@]4(C)C3CC=C3[C@@H]5CC(C)(C)CC[C@]5(C(=O)OC5OCC(O)C(O)C5O)CC[C@]34C)C2(C)C)O[C@H](COC2OC(C)C(O)C(OC3OC(C)C(O)C(O)C3O)C2O)[C@@H](O)[C@@H]1O (some centres undefined)	2.63% [at 11.6 µM] (inactive)
CC(C)=CCC[C@](C)(O[C@@H]1O[C@H](CO)[C@@H](O)[C@H](O)[C@H]1O)[C@H]1CC[C@]2(C)[C@@H]1[C@H](O)CC1[C@@]3(C)CC[C@H](O)C(C)(C)C3[C@@H](O[C@@H]3O[C@H](CO)[C@@H](O)[C@H](O)[C@H]3O[C@@H]3OC[C@@H](O)[C@H](O)[C@H]3O)C[C@]12C (some centres undefined)	-2.34% [at 11.6 µM] (inactive)
CC(=O)N[C@H]1[C@H](O[C@H]2CC[C@@]3(C)C(CC[C@]4(C)C3CC=C3C5CC(C)(C)CC[C@]5(C(=O)O)[C@H](O)C[C@]34C)C2(C)C)O[C@H](CO[C@@H]2OC[C@H](O)[C@H](O)[C@H]2O[C@@H]2OC[C@@H](O)[C@H](O)[C@H]2O)[C@@H](O)[C@@H]1O (some centres undefined)	-0.0551% [at 11.6 µM] (inactive)
C[C@@H]1O[C@@H](O[C@H]2[C@H](O[C@H]3CC[C@@]4(C)C(CC[C@]5(C)C4CC=C4[C@@H]6CC(C)(C)CC[C@]6(C(=O)O[C@@H]6OC[C@H](O)[C@H](O)[C@H]6O[C@@H]6O[C@@H](C)[C@H](O[C@@H]7O[C@H](CO)[C@@H](O)[C@H](O)[C@H]7O)[C@H](O)[C@H]6O)[C@H](O)C[C@]45C)C3(C)C)O[C@H](CO)[C@@H](O[C@@H]3OC[C@@H](O)[C@H](O)[C@H]3O)[C@@H]2O)[C@H](O)[C@H](O)[C@H]1O (some centres undefined)	2.71% [at 6.55 µM] (inactive)
C[C@@H]1O[C@@H](O[C@H]2[C@@H](OC(=O)[C@]34CCC(C)(C)CC3C3=CCC5[C@@]6(C)C[C@H](O)[C@H](O[C@@H]7O[C@H](C(=O)O)[C@@H](O)[C@H](O)[C@H]7O)[C@@](C)(C(=O)O)C6CC[C@@]5(C)[C@]3(C)CC4)OC[C@H](O)[C@@H]2O)[C@H](O)[C@H](O)[C@H]1O[C@@H]1OC[C@@H](O)[C@H](O)[C@H]1O (some centres undefined)	-4.55% [at 11.6 µM] (inactive)
CC1(C)CC[C@]2(C(=O)O[C@@H]3O[C@H](CO)[C@@H](O)[C@H](O)[C@H]3O)CC[C@]3(C)C(=CCC4[C@@]5(C)CC[C@H](O[C@@H]6O[C@H](C(=O)O)[C@@H](O)[C@H](O[C@@H]7O[C@H](CO)[C@H](O)[C@H](O)[C@H]7O)[C@H]6O)C(C)(C)C5CC[C@]43C)C2C1 (some centres undefined)	-0.142% [at 11.6 µM] (inactive)
CC1OC(OC2C(O)C(OC3CCC4(C)C(CCC5(C)C4CC=C4C6CC(C)(COC7OC(CO)C(O)C(O)C7O)CC(O)C6(C)CCC45C)C3(C)C)OC(C(=O)O)C2O)C(O)C(O)C1OC1OCC(O)C(O)C1O (centres undefined)	6.66% [at 11.6 µM] (inactive)
CC(C)=CCC/C(C)=C/CC/C(C)=C/COC1OC(COC2OCC(OC3OCC(O)C(O)C3O)C(O)C2O)C(O)C(OC2OC(C)C(OC3OC(C)C(OC4OCC(OC5OC(C)C(O)C(O)C5O)C(O)C4O)C(O)C3O)C(O)C2O)C1O (centres undefined)	-0.577% [at 6.55 µM] (inactive)
CC(=O)C1=C(C)N(c2cccc(C(F)(F)F)c2)C(=O)N[C@H]1c1ccc(C#N)nc1	3.34% [at 11.6 µM] (inactive)
C[C@@H]1O[C@@H](O[C@H]2[C@H](O)[C@@H](O[C@@H]3O[C@H](CO)[C@@H](O)[C@H](O[C@@H]4O[C@H](CO)[C@@H](O)[C@H](O)[C@H]4O)[C@H]3O)[C@H](O[C@H]3CC[C@@]4(C)C(=CC[C@@H]5C4CC[C@@]4(C)C5C[C@@H]5OC6(CC[C@@](C)(CO[C@@H]7O[C@H](CO)[C@@H](O)[C@H](O)[C@H]7O)O6)[C@@H](C)[C@@H]54)C3)O[C@@H]2CO)[C@H](O)[C@H](O)[C@H]1O (some centres undefined)	-2.15% [at 6.55 µM] (inactive)
C[C@@H]1O[C@@H](O[C@@H]2CO[C@@H](O[C@H]3CC[C@@]4(C)C(CC[C@]5(C)C4CC=C4[C@@H]6CC(C)(C)CC[C@]6(C(=O)O[C@@H]6O[C@H](CO)[C@@H](O)[C@H](O)[C@H]6O)CC[C@]45C)[C@]3(C)CO)[C@H](O)[C@H]2O[C@@H]2O[C@H](CO)[C@@H](O)[C@H](O)[C@H]2O)[C@H](O)[C@H](O)[C@H]1O (some centres undefined)	4.72% [at 11.6 µM] (inactive)
